Every entry's value here was drawn from PubChem BioAssay AID602399.

- Test system: Nicotinate-nucleotide adenylyltransferase NadD (Staphylococcus aureus N315)
- assay_info: inhibitors of S. aureus NadD, primary screen, biochemical, colorimetric, uHTS (AID 602399)
- condition_context: purified NadD enzyme, colorimetric absorbance read-out; at 20 µM
Out of some 360,000 compounds screened, about 2,800 (0.78%) were called active. Cut-off read from the data, not from the text of the source: active = inhibition above about 26%; inactive = the rest. What follows is part of a selection rich in actives, with near analogues and random picks from the rest.
Valid outcomes are listed here; reply with one: 1.0 (active), 0.0 (inactive)

Below, 6 molecules whose answers are already recorded.
# molecule, label_class
measured = [
    ("COc1ccccc1OCCOc1ccc(/C=C2\\C(=N)N3N=C(C)SC3=NC2=O)cc1", 1.0),
    ("c1ccc2c(c1)OCCOCCOCCO2", 0.0),
    ("CCOc1cc(/C=C2\\C(=N)N3N=C(C)SC3=NC2=O)ccc1OCCOc1ccccc1", 0.0),
    ("C=CC(=O)Nc1ccc(Nc2ccnc(Nc3ccc(N4CCN(C)CC4)cc3)n2)cc1", 1.0),
    ("CC(C)C(c1nnnn1C1CCCC1)N1CCN(c2ccccc2F)CC1 (centres undefined)", 0.0),
    ("COc1ccc(Cl)cc1C(=O)NNC(=S)NC(=O)/C=C/c1ccco1", 1.0),
]

Enquiry: For O=C(N1CCOCC1)N(Cc1ccccc1)c1ccccn1 , what call appears in the results of this test?
Return: 0.0

Enquiry: Also Cc1cccc(N2CCN(C(=O)/C=C/c3ccco3)CC2)c1C ?
Return: 0.0

Enquiry: Thanks! And N#CC1=C(N)Oc2c(sc3ccccc23)C1c1ccco1 (centres undefined) ?
Return: 1.0

Enquiry: Check Cc1nc(CC(=O)NNS(=O)(=O)c2ccc(F)c(Cl)c2)cs1 too.
Return: 0.0

Enquiry: // repeat for CCc1ccc(C(=O)OCC(=O)NCC(F)(F)F)cc1 and report
Return: 0.0
